- Tested on: COR-L279 (Small Cell Lung Carcinoma)
- Experiment: combination Emax (second highest fraction inhibited in the dose matrix, 72 h); higher = more inhibition; extreme values may be limits of the assay
Reported combination Emax values follow for various molecules
Respond using a number only.

INSERT INTO measurements (molecule, measured_value) VALUES
  ('CN(C)CCCOc1ccc(-c2ccc3ncc4c(c3c2)n(C2CCOCC2)c(=O)n4C)cn1 [AZD0156] + CCN(CCO)CCCOc1ccc2c(Nc3cc(CC(=O)Nc4cccc(F)c4)[nH]n3)ncnc2c1 [AZD2811] (first compound max 1 µM, 7x7, partner max 1 µM)', 0.776);

Now let's try a different one.
Identify combination Emax associated with the molecule N#Cc1cnc(Nc2cc(NC[C@H]3CNCCO3)c(C(F)(F)F)cn2)cn1 [SRA737] + C=CCn1c(=O)c2cnc(Nc3ccc(N4CCN(C)CC4)cc3)nc2n1-c1cccc(C(C)(C)O)n1 [AZD1775] (first compound max 10 µM, partner max 1 µM)
0.834

---

# Lookup of reported Bliss excess keyed by entry
- System: NCI-H520 (Squamous Cell Lung Carcinoma)
- Experiment: Bliss excess, mean over the matrix (fraction); higher = more synergy

The cases that follow already have their Bliss excess on record.
INSERT INTO results (compound, measured_value) VALUES
  ('Cc1c2c(nn1C)CSCc1cc(n(C)n1)CSc1cc(c3ccccc3c1)OCCCc1c(C(=O)O)n(C)c3c-2c(Cl)ccc13 [AZD5991] + C=CCn1c(=O)c2cnc(Nc3ccc(N4CCN(C)CC4)cc3)nc2n1-c1cccc(C(C)(C)O)n1 [AZD1775] (first compound max 1 µM, partner max 1 µM)', 0.0221),
  ('CC(=O)c1c(C)c2cnc(Nc3ccc(N4CCNCC4)cn3)nc2n(C2CCCC2)c1=O [Palbociclib] + Cc1c2c(nn1C)CSCc1cc(n(C)n1)CSc1cc(c3ccccc3c1)OCCCc1c(C(=O)O)n(C)c3c-2c(Cl)ccc13 [AZD5991] (first compound max 10 µM, 7x7, partner max 1 µM)', 0.0024);

Note: attention shifts to another entry.
Please report Bliss excess with NCI-H520 (Squamous Cell Lung Carcinoma) for item Cc1c2c(nn1C)CSCc1cc(n(C)n1)CSc1cc(c3ccccc3c1)OCCCc1c(C(=O)O)n(C)c3c-2c(Cl)ccc13 [AZD5991] + C[C@@H](Nc1cc(F)cc(F)c1)c1cc(C(=O)N(C)C)cc2c(=O)cc(N3CCOCC3)oc12 [AZD8186] (first compound max 1 µM, 7x7, partner max 3 µM) .
-0.0474

---

Each entry below carries its recorded Bliss excess.
- System: NCI-H661 (Non-Small Cell Lung Carcinoma)
- Experiment: Bliss excess, mean over the matrix (fraction); higher = more synergy

Consider the reported Bliss excess for these molecules:
INSERT INTO measurements (molecule, measurement_name, measured_value) VALUES
  ('C=CCn1c(=O)c2cnc(Nc3ccc(N4CCN(C)CC4)cc3)nc2n1-c1cccc(C(C)(C)O)n1 [AZD1775] + C[C@@H]1COCCN1C2=NC(=NC(=C2)C3(CC3)[S@](=N)(=O)C)C4=C5C=CNC5=NC=C4 [AZD6738] (first compound max 1 µM, partner max 10 µM)', 'Bliss excess', 0.0157),
  ('Cc1c2c(nn1C)CSCc1cc(n(C)n1)CSc1cc(c3ccccc3c1)OCCCc1c(C(=O)O)n(C)c3c-2c(Cl)ccc13 [AZD5991] + CCN(CCO)CCCOc1ccc2c(Nc3cc(CC(=O)Nc4cccc(F)c4)[nH]n3)ncnc2c1 [AZD2811] (first compound max 1 µM, 7x7, partner max 1 µM)', 'Bliss excess', 0.0328);

Now look at this one.
Enter measured Bliss excess, system NCI-H661 (Non-Small Cell Lung Carcinoma), for the molecule shown: CN(CCO)CC[C@H](CSc1ccccc1)Nc1ccc(S(=O)(=O)NC(=O)c2ccc(N3CCC([C@@H](O)c4ccccc4-c4ccc(Cl)cc4)CC3)cc2)cc1S(=O)(=O)C(F)(F)F [AZD4320] + CN(C)CCCOc1ccc(-c2ccc3ncc4c(c3c2)n(C2CCOCC2)c(=O)n4C)cn1 [AZD0156] (first compound max 1 µM, 7x7, partner max 1 µM)
-0.0232
